Sourced from patent US12590062B2

I'd appreciate it if you could supply pIC50 values for the items below.
Biological target: PD-1/PD-L1 (Homo sapiens)
Sequence (Q9NZQ7 19-238 limits assumed): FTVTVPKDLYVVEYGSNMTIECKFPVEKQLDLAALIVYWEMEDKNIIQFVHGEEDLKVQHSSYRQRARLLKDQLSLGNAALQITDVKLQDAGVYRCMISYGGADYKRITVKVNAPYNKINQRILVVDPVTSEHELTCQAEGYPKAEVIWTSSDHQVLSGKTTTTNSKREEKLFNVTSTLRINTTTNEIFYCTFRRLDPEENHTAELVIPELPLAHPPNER
Assay: PD-1/PD-L1 biochemical protein-protein interaction assay (ALPHA)
Conditions: 0.3 nM His tagged PD-L1, 2.5 nM biotinylated Fc-PD-1, 60 minutes at 25° C., read-out: IC50 PD-L1-PD-1 Alpha IC50-mono PD-L1-fcP-D1
Numbers only, as −log10 of the molar value.

Some compounds with recorded pIC50:
>>> value_measured("COc1nc(O[C@H]2CCc3c(-c4cccc(-c5cc(C)c(CNC[C@@H]6CCC(=O)N6)c(OC)n5)c4Cl)cccc32)c(Cl)cc1CNC[C@@H]1CCC(=O)N1")
10.19
>>> value_measured("Cc1c(COc2cc(OCc3cncc(C#N)c3)c(CN(C)C)cc2Cl)cccc1-c1cccc(-c2ccc(CN(C)C)s2)c1C")
8.63

Give pIC50 for all compounds that follow.
1. COc1nc(O[C@H]2CCc3c(-c4cccc(-c5cc(C)c(CNC[C@@H]6CCC(=O)N6)c(OC)n5)c4Cl)cccc32)c(Cl)cc1CN1CC[C@](C)(C(=O)O)C1
2. COc1nc(OCc2cccc(-c3cccc(COc4ccc(CNC[C@H](O)CC(=O)O)c(OC)n4)c3Cl)c2Cl)ccc1CNC[C@H](O)CC(=O)O
3. Cc1c(COc2cc(OCc3cncc(C#N)c3)c(CN[C@@](C)(CO)C(=O)O)cc2Cl)cccc1-c1cccc(-c2ccc(OCCNCCO)c(C(=O)NC3CC3)c2)c1C
4. Cc1c(COc2cc(OCc3cncc(C#N)c3)c(CN3CC[C@@H](O)C3)cc2Cl)cccc1-c1cccc(-c2ccc(CNC[C@@H](O)CC(=O)O)cc2)c1C
5. COc1nc(-c2cccc(-c3cccc4c3CC[C@@H]4Oc3nc(OCc4cncc(C#N)c4)c(CN[C@@](C)(CO)C(=O)O)cc3Cl)c2Cl)ccc1CN1CC2(C1)CN(C(=O)OC(C)(C)C)C2
6. Cc1c(COc2cc(OCc3cncc(C#N)c3)c(CNC[C@@H](O)CC(=O)O)cc2Cl)cccc1-c1cccc(-c2cnc3c(Cl)cc(CNC[C@@H](O)CC(=O)O)cc3c2)c1C

(A)
10.19
9.52
10.19
9.46
9.38
9.73

Give pIC50 for all compounds that follow.
1. CC(C)(NCc1cc(Cl)c(O[C@H]2CCc3c(-c4cccc(-c5ccc(OCCN6CC[C@@H](O)C6)cc5)c4Cl)cccc32)nc1OCc1cncc(S(C)(=O)=O)c1)C(=O)O
2. N#Cc1cncc(COc2nc(O[C@H]3CCc4c(-c5cccc(-c6ccc(OCCNCCO)cc6)c5Cl)cccc43)ccc2CNC[C@@H](O)CC(=O)O)c1
3. Cc1c(COc2cc(OCc3cncc(C#N)c3)c(CNC[C@@H](O)CC(=O)O)cc2Cl)cccc1-c1cccc(-c2ccn3cc(CNC[C@@H](O)CC(=O)O)nc3c2)c1C

(A)
[10.19, 9.59, 10.19]

###

Biological target: PD-1/PD-L1 (Homo sapiens)
Assay: PD-1/PD-L1 biochemical protein-protein interaction assay (ALPHA)
Conditions: 0.3 nM His tagged PD-L1, 2.5 nM biotinylated Fc-PD-1, 60 minutes at 25° C., read-out: IC50 PD-L1-PD-1 Alpha IC50-mono PD-L1-fcP-D1
# if measured IC50 < 0.3 nM: true (1)  # else: false (0)

>>> label_class("N#Cc1cc(C#N)cc(COc2nc(OCc3cccc(-c4cccc(-c5ccc(OCCNCCO)cc5)c4Cl)c3Cl)c(Cl)cc2CNC[C@@H](O)CC(=O)O)c1 [Example 351]")
"false (0)"
>>> label_class("COc1nc(-c2cccc(-c3cccc(-c4ccc5c(CNC[C@@H]6CCC(=O)N6)cc(=O)n(C)c5c4)c3Cl)c2Cl)ccc1CNC[C@@H]1CCC(=O)N1 [Example 603]")
"true (1)"
>>> label_class("Cc1c(COc2cc(OCc3cncc(C#N)c3)c(CN[C@@](C)(CO)C(=O)O)cc2Cl)cccc1-c1cccc(-c2ccc(OCCN3CCC4(CC3)CC(=O)N4)cc2)c1C [Example 441]")
"true (1)"

(Q) Threshold test, IC50 < 0.3 nM: COc1nc(-c2cccc(-c3cccc(COc4cc(OCc5cncc(C#N)c5)c(CN[C@@](C)(CO)C(=O)O)cc4Cl)c3C)c2C)ccc1C1=NCCN1 [Example 504]
(A) true (1)

(Q) Threshold test, IC50 < 0.3 nM: COc1nc(O[C@H]2CCc3c(-c4cccc(-c5ccc(CNC[C@@H]6CCC(=O)N6)c(OCC#N)c5)c4Cl)cccc32)c(Cl)cc1CN[C@@H]1CCC[C@@H]1O [Example 650]
(A) true (1)

(Q) Threshold test, IC50 < 0.3 nM: Cc1c(COc2cc(OCc3cncc(C#N)c3)c(CNCCO)cc2Cl)cccc1-c1cccc(-c2ccc3c(c2)CCC3N2CC[C@H](O)C2)c1C (some centres unmarked) [Example 373]
(A) false (0)

(Q) Threshold test, IC50 < 0.3 nM: COc1nc(-c2cccc(-c3cccc4c3CC[C@@H]4Oc3nc(OC)c(CN4CCC[C@H](C(=O)O)C4)cc3Cl)c2Cl)ccc1CNC[C@@H]1CCC(=O)N1 [Example 759]
(A) true (1)

(Q) Threshold test, IC50 < 0.3 nM: COc1nc(-c2cccc(-c3cccc(-c4ccc5c(c4)C[C@@H](N)C5)c3Cl)c2Cl)ccc1CN1CC2(CCC(=O)N2)C1 [Example 613]
(A) false (0)
